# experimental-target: IDH1 R132H (Homo sapiens (Human), UniProt O75874, R132H)
# Sequence (O75874 whole entry R132H): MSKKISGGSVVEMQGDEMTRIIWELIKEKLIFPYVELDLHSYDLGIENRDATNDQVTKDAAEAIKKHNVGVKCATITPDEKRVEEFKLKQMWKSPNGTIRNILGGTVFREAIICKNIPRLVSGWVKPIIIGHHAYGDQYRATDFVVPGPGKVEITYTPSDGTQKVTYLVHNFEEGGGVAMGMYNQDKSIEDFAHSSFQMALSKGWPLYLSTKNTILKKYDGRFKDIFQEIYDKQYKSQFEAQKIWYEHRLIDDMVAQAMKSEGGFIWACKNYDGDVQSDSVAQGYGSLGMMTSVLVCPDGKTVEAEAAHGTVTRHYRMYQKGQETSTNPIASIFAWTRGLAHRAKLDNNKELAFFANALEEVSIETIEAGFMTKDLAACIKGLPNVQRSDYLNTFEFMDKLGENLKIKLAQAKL
# method-notes: Assays for IDH1 R132H Inhibitors (NADPH/aKG, resazurin detection)
# Format: biochemical
# assay-context: IDH1 R132H enzyme, Table 2; read-out: IDHR132H Activity
pIC50: −log10 of the molar value.
Entries and their pIC50

Solved cases below.
compound: CC(C)c1nc(N2CCN(C(=O)c3ccoc3)C(C)C2)c(C#N)c2c1COC(C)(C)C2 (stereo not drawn)
quantity-measured: pIC50
observed-result: 5.00 to 6.00

compound: CC(C)c1nc(N2CCN(C(=O)Nc3ccc(F)cc3)CC2)c(C#N)c2c1COCC2
quantity-measured: pIC50
observed-result: 5.00 to 6.00

compound: CCOC(=O)C1CN(c2nc(C(C)C)c3c(c2C#N)CC(C)(C)OC3)CCN1C(=O)Cc1cccs1 (stereo not drawn)
quantity-measured: pIC50
observed-result: 6.00 to 6.30

compound: COCCC(=O)N1CCN(c2nc(C3CC3)c3c(c2C#N)CC(C)(C)OC3)CC1COC (stereo not drawn)
quantity-measured: pIC50
observed-result: 5.00 to 6.00

compound: CCCNC(=O)N1CCN(c2nc(C3CCCCC3)c3c(c2C#N)CCOC3)C[C@H]1C
quantity-measured: pIC50
observed-result: 5.00 to 6.00

compound: CC(C)[C@@H]1CN(c2nc(C3CC3)c3c(c2C#N)CC(C)(C)OC3)CCN1C(=O)OCC1CC1
quantity-measured: pIC50
observed-result: 5.00 to 6.00

compound: Cc1occc1C(=O)N1CCN(c2nc(C(C)C)c3c(c2C#N)CC(C)(C)OC3)C[C@H]1C
quantity-measured: pIC50
observed-result: 6.00 to 6.30

compound: COCCC(=O)N1CCN(c2nc(C3CCC3)c3c(c2C#N)CC(C)(C)OC3)C[C@H]1C(C)C
quantity-measured: pIC50
observed-result: > 6.30

compound: CC(C)[C@@H]1CN(c2nc(C3CC3)c3c(c2C#N)CC(C)(C)OC3)CCN1C(=O)CCl
quantity-measured: pIC50
observed-result: > 6.30

compound: CCOC(=O)C1CN(c2nc(C3CCCCC3)c3c(c2C#N)CCOC3)CCN1C(=O)c1ccoc1 (stereo not drawn)
quantity-measured: pIC50
observed-result: 5.00 to 6.00

Sample Cc1occc1C(=O)N1CCN(c2nc(C3CC3)c3c(c2C#N)CC(C)(C)OC3)C[C@H]1C(C)C — what was its pIC50?
> 6.30

Requested field: pIC50. Item: COCCC(=O)N1CCN(c2nc(C3CC3)c3c(c2C#N)CC(C)(C)OC3)C[C@@H]1CC(C)C
5.00 to 6.00

Report pIC50 for CC(C)c1nc(N2CCN(C(=O)c3ccoc3)C(c3ccccc3)C2)c(C#N)c2c1COC(C)(C)C2 (stereo not drawn) please.
5.00 to 6.00

Which pIC50 value belongs to CC[C@@H]1CN(c2nc(C3CC3)c3c(c2C#N)CC(C)(C)OC3)CCN1C(=O)c1cscn1 ?
5.00 to 6.00

# lookup: pIC50 of C[C@@H]1CN(c2nc(C3CC3)c3c(c2C#N)CC(C)(C)OC3)CCN1C(=O)c1ccoc1
6.00 to 6.30
